System: SNB-78 CNS
experiment: NCI tumour cell line growth inhibition, 48 h
property label: TGI (µM)
Give the value in µM but do not write µM after it.

Task item: What value of TGI has been recorded for this entry: O=C(O)C1(C(=O)O)CCC1.[NH2-].[NH2-].[Pt+2]
Reply: 217

Task item: Data request, read-out TGI, for C[C@]12CC/C(=N\O)C=C1CC[C@@H]1C2CC[C@@]2(C)C1CC[C@@H]2OC1CCCCO1 (some centres not stated)
Reply: 41.7

Task item: # query: TGI of entry Cc1cc(/C=C/c2cc[n+](C)c3ccccc23)c(O)c2ncccc12
Reply: 27.1

---

Test system: EKVX NSCLC
experiment: NCI tumour cell line growth inhibition, 48 h
Field: TGI. Provide a value for each of the molecules that follow.

Task item: Reported TGI, molecule CN(Cc1ccccc1)c1ccc(CO)c(Cl)c1 : ____
Reply: 98.8 µM

Task item: Which TGI value belongs to O=c1[nH]nc(Cc2c[nH]c3ccccc23)o1 ?
Reply: > 100 µM

Task item: // query TGI value for entry CC(Nc1ccc(S(=O)(=O)N=C(N)N)cc1)c1c2ccccc2nc2ccccc12 (stereo unspecified)
Reply: > 100 µM

Task item: Query: TGI; subject: COc1cc(C2SCC(=O)N2c2ncc(C)s2)cc(OC)c1OC (stereo unspecified)
Reply: > 50 µM

Task item: Which value of TGI has been reported for CC1CCCC(C(O)CC2CC(=O)NC(=O)C2)C1O (stereo unspecified) in the records?
Reply: > 100 µM

Task item: I'd like to know its TGI. The molecule in question is COc1cc(C2c3cc4c(cc3OC(NNS(=O)(=O)c3ccc(C)cc3)C2C)OCO4)cc(OC)c1O (stereo unspecified)
Reply: 49.8 µM

---

Tested on: TK-10 renal
experiment: NCI tumour cell line growth inhibition, 48 h
property label: TGI

Task item: What measured TGI goes with CN(/N=C/c1cccc2cccnc12)c1ccc(Cl)cc1[N+](=O)[O-] ?
Reply: > 100 µM

Task item: I'd like to know its TGI. The compound in question is NC(=O)NCCCC(NC(=O)OCCCCCCn1ccc(=O)[nH]c1=O)C(=O)O (stereo not given)
Reply: > 100 µM

Task item: Endpoint output: TGI of O=C(Cc1ccc(F)c(F)c1)Nc1cc(C2(C(F)(F)F)CC2)nn1Cc1ccccc1 . Value?
Reply: > 15 µM

Task item: Returns the measured TGI for the input compound. Input: N#CC(=N)c1ncn(-c2ccc(N)cc2)c1N
Reply: > 100 µM

Task item: Look up TGI for this compound: COC(=O)C(C(=O)C(=O)Nc1ccc([N+](=O)[O-])cc1[N+](=O)[O-])c1nc2ccc(Cl)cc2[nH]c1=O (stereo not given)
Reply: > 100 µM

---

Give measured GI50 for each item. Keep answers brief.
Test system: SF-295 CNS
experiment: NCI tumour cell line growth inhibition, 48 h

Task item: Item under review: Cn1c2c(c3ccc([N+](=O)[O-])cc3c1=O)C(=O)c1ccccc1-2 . Reported GI50?
Reply: 22.7 µM

Task item: Reported GI50 for CCOC(=O)c1cc2c(cc1Cl)SC(N(c1ccc(OC)cc1)S(=O)(=O)c1ccc(Cl)cc1)=NS2(=O)=O : what is it?
Reply: 54.9 µM

Task item: What does the record list as GI50 for O=c1cc(-c2cccc3c2Sc2ccccc2S3)oc(N2CCOCC2)c1 ?
Reply: 11.5 µM

Task item: Report GI50 for O=C(NCCCO)c1cc(Cl)ccc1O please.
Reply: 1.36 µM

Task item: Form field: reported GI50 of NCCCCCCCn1c2c(c3ccccc3c1=O)C(=O)c1ccccc1-2
Reply: 1.74 µM

---

Tested on: SN12C renal
experiment: NCI tumour cell line growth inhibition, 48 h
property label: TGI

Task item: Give its TGI value. Item: CC(C)=CC(Cc1ccccc1)S(=O)(=O)c1nc2ccccc2s1 (stereo not drawn)
Reply: 31.8 µM

Task item: What does the record list as TGI for Cc1nnc(-c2cccc(-c3ccc(C(=O)NCC4CC4)cc3)c2)o1 ?
Reply: > 25 µM

Task item: Quick one: TGI of CC(C)C(=O)Nc1cc(C(F)(F)F)ccc1[N+](=O)[O-] ?
Reply: > 100 µM

---

Consider the following molecules; for each one, report its log10(TGI).
System: A549 NSCLC
experiment: NCI tumour cell line growth inhibition, 48 h
Please interpret these as log10 of TGI where TGI is in µM.

Task item: Would you kindly share the measured log10(TGI) for O=C(NCCCO)c1cc(Cl)ccc1O ?
Reply: 1.15

Task item: If you can, please state the reported log10(TGI) value of C/C=C(\C)C(O)C(C)C(O)C/C=C(C)/C=C(\C)C/C(C)=C/C/C=C(\C)C(O)C(C)c1ccc(CCC)c(=O)o1 (stereo not given) .
Reply: 1.44

Task item: Name the recorded log10(TGI) for Fc1ccc2c(c1)c(-c1nc(-c3c[nH]c4ncccc34)cs1)cn2CCCCN1CCCCC1 .
Reply: 0.52

Task item: Consider the molecule shown here: Cc1cc(N2CCOCC2)nc(N[C@@H]2CCC[C@H](Nc3ccnc4cc(Cl)ccc34)C2)n1 What is its recorded log10(TGI)?
Reply: 0.93

Task item: Which log10(TGI) value belongs to CC(C)=CCC[C@](C)(O)[C@H]1CC[C@]2(C)[C@@H]1CC[C@@H]1[C@@]3(C)CC/C(=N/O)C(C)(C)[C@@H]3CC[C@]12C ?
Reply: 1.80

Task item: # query: log10(TGI) of entry NCCOCCOCCNc1nc(-c2ccccc2)nc(N2CCN(c3ccccn3)CC2)n1
Reply: 1.48

Task item: For O=C(CCN1CCN(c2ccccc2)CC1)N1CCc2c([nH]c3ccccc23)C1c1cccnc1 (stereo not given) , what is its reported log10(TGI)?
Reply: 1.47

---

Test system: SF-295 CNS
experiment: NCI tumour cell line growth inhibition, 48 h
Hi there, I'd appreciate the recorded TGI for every entry that follows.

Task item: Bench note: what TGI did c1ccc(CN2COc3c(ccc4c3OCN(Cc3ccccc3)C4)C2)cc1 show?
Reply: > 100 µM

Task item: Endpoint output: TGI of COc1ccc(/C(Cl)=C(\C=N/O)c2ccc(OC)c(OC)c2)cc1OC . Value?
Reply: > 100 µM

Task item: # TGI lookup, item COc1c2ccoc2c(OC)c2oc(=O)ccc12
Reply: > 100 µM

---

I'd appreciate it if you could supply TGI values for the items below.
Tested on: NCI-H522 lung
experiment: NCI tumour cell line growth inhibition, 48 h
Just the number in µM, nothing appended.

Task item: Report TGI for O=c1c(Br)cc2nc3ccccc3sc-2c1Br please.
Reply: 36.2

Task item: Given C[C@]12CC/C(=N\O)C=C1CC[C@@H]1C2CC[C@@]2(C)C1CC[C@@H]2OC1CCCCO1 (some centres undefined) , state its recorded TGI.
Reply: 34.7

Task item: Given the compound Cc1nc2ccccc2c(/C=C/c2ccc(Cl)cc2)c1C(=O)/C=C/c1ccc(C(F)(F)F)cc1 , what is its reported TGI?
Reply: 0.838

Task item: So what does the record say about TGI for CN(C)CCn1c(=O)c2ccc(NCCN3CCNCC3)c3c(=O)c4ccccc4n(c1=O)c23 ?
Reply: 10

Task item: Look up TGI for this compound: CCOc1ccc(N/C(=C(/C(Cl)=C(/Cl)N2CCCCC2)[N+](=O)[O-])n2nnc3ccccc32)cc1
Reply: 22

Task item: If you can, please state the reported TGI value of O=c1cc(-c2cccc3c2Sc2ccccc2S3)oc(N2CCOCC2)c1 .
Reply: 22.6

Task item: Recorded TGI for CC(=O)C1=C(O)C=C2Oc3c(C(=O)/C=C/c4c(Cl)cccc4Cl)c(O)c(C)c(O)c3[C@]2(C)C1=O , please?
Reply: 2.77

Task item: Which TGI is listed for COc1ccc2c(=O)cc(C(Cl)(Cl)Cl)oc2c1 ?
Reply: 0.683

Task item: Request the reported TGI associated with O=C(c1ccccc1)C1OC1c1ccc([N+](=O)[O-])cc1 (centres undefined)
Reply: 7.11

Task item: Would you mind telling me what TGI value was observed for Cn1cnc([N+](=O)[O-])c1Sc1nccn1-c1cccc2ccccc12 ?
Reply: 22.4

Task item: I'd like to know its TGI. The compound in question is CC(=O)OC(C)(C)/C(C)=C/C(=O)O[C@H]1C(=O)O[C@@H]2C[C@H]3[C@H](C)C(=O)C(O[C@@H]4O[C@H](CO)[C@@H](O)[C@H](O)[C@H]4O)=C[C@]3(C)[C@H]3[C@@H](O)[C@H](O)[C@@]4(C(=O)O)OC[C@]32[C@@H]14
Reply: 49.5

Task item: Item C=C1CCC2C3(C)COC(c4ccccc4)OC3CCC2(C)C1/C=C/C1=CCOC1=O (centres undefined) has what recorded TGI?
Reply: 14.9

Task item: What measured TGI goes with CC(=O)c1c(C)[nH]c(-c2nc3ccc(N4CCN(C)CC4)cc3[nH]2)c1-c1ccc(N(C)C)cc1 ?
Reply: 16.6
